biological target: glutathione-S-transferase (GST) tagged LXRalpha LBD (ligand binding domain) (Homo sapiens); assay: LanthaScreen TR-FRET Liver X Receptor Coactivator Assay, LXR alpha-LBD; details: potency (Inflection Point) of co-activator recruitment, TR-FRET; read-out: LXR alpha IP
Sequence (Q13133 209-447 limits assumed): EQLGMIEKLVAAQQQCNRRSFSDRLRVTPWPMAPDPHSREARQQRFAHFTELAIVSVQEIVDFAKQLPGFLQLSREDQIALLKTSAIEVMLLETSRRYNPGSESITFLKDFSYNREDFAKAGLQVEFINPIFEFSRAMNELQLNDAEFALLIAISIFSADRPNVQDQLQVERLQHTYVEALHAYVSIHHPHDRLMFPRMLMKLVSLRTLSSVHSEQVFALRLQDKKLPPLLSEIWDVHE
// returns Not met unless EC50 is strictly below 1000 nM, in which case Met

Input: Quick check: EC50 of CN(C)C(=O)c1ccc(-c2cnc(N3CCN(S(=O)(=O)c4cccs4)CC3)c(C#N)c2)cc1Cl [Example 1-6] under 1000 nM?
Output: Not met

Input: Now this one: CC(C)C(O)(C(=O)N1CCN(c2ccc(-c3ccc(C(=O)N(C)C)c(Cl)c3)cc2)CC1)C(F)(F)F (stereo not shown) [Example 4-18]
Output: Not met

Input: Now this one: CN(C)C(=O)c1ccc(-c2cnc(N3CCN(S(=O)(=O)c4ccccc4C#N)CC3)c(C#N)c2)cc1Cl [Example 1-9]
Output: Met

Input: Now this one: CC(C)(C)OC(=O)N1CCN(c2ncc(-c3ccc(C(=O)N4CCC4)c(Cl)c3)cc2C#N)CC1 [Example 5-4]
Output: Not met

Input: Now this one: CN(C)C(=O)c1ccc(-c2cnc(N3CCN(S(=O)(=O)c4c(Cl)cccc4C(F)(F)F)CC3)c(C#N)c2)cc1Cl [Example 1-18]
Output: Not met

Input: Now this one: CN(C)C(=O)c1ccc(-c2cnc(N3CCN(C(=O)[C@](C)(O)C(F)(F)F)CC3)c(C#N)c2)cc1Cl [Example 2-16]
Output: Not met
